target: T1, hMC5-R (human, UniProt P33032 1-325); experiment: competition with [125I]-NDP-α-MSH, CHO-K1 membranes
T1 construct: whole, on cells; Assayed as membranes of CHO-K1 cells expressing the receptor; also called hMC-R receptor subtype 5; melanocortin-5 receptor (MC5-R)
T1 sequence (P33032 whole entry): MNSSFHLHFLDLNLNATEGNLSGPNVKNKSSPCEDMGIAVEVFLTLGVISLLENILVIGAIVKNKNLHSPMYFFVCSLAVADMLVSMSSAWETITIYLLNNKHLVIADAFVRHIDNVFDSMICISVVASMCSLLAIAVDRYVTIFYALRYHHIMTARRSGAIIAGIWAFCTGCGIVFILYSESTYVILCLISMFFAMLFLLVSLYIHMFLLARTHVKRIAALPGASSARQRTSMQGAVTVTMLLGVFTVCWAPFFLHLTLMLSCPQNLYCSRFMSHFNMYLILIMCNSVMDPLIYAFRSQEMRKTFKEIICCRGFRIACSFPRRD
Bridge positions count the residues as written; N and C are the ends. Square brackets hold non-standard residues; d marks the D form. Ends that are not written are not given here. 2Nal = N[C@@H](Cc1ccc2ccccc2c1)C(=O)O; dTle = CC(C)(C)[C@@H](N)C(=O)O; Chg = N[C@H](C(=O)O)C1CCCCC1; Pen = CC(C)(S)[C@H](N)C(=O)O; Nle = CCCC[C@H](N)C(=O)O; Ava = NCCCCC(=O)O; GABA = NCCCC(=O)O
assay_readout: log10 Ki (log10 of the value in nM)
Please note: log10 values; quantity Ki; unit nM.

// known answers, use as guide
**Q:** Which log10 Ki value is on record for Ac-RDH[dF]RWAK-NH2 (lactam 2-8) [Ac-Arg-c(Asp-His-D-Phe-Arg-Trp-Ala-Lys)-NH2] ?
**A:** 2.89

**Q:** Give its log10 Ki value. Item: Ac-[Nle]C[dTle]H[dF]RWC-NH2 (disulfide 2-8) [Ac-Nle-c(Cys-D-Tle-His-D-Phe-Arg-Trp-Cys)-NH2]
**A:** 1.60

**Q:** Which log10 Ki is listed for Ac-[Nle]C[dL]H[dF]RWC-NH2 (disulfide 2-8; SMILES CCCC[C@H](NC(C)=O)C(=O)N[C@H]1CSSC[C@@H](C(N)=O)NC(=O)[C@H](Cc2c[nH]c3ccccc23)NC(=O)[C@H](CCCNC(=N)N)NC(=O)[C@@H](Cc2ccccc2)NC(=O)[C@H](Cc2c[nH]cn2)NC(=O)[C@@H](CC(C)C)NC1=O) [Ac-Nle-c(Cys-D-Leu-His-D-Phe-Arg-Trp-Cys)-NH2] ?
**A:** 0.75

**Q:** Tell me the measured log10 Ki of Ac-[Nle]CH[dF]RW[Ava]C-NH2 (disulfide 2-8; SMILES CCCC[C@H](NC(C)=O)C(=O)N[C@H]1CSSC[C@@H](C(N)=O)NC(=O)CCCCNC(=O)[C@H](Cc2c[nH]c3ccccc23)NC(=O)[C@H](CCCNC(=N)N)NC(=O)[C@@H](Cc2ccccc2)NC(=O)[C@H](Cc2c[nH]cn2)NC1=O) [Ac-Nle-c(Cys-His-D-Phe-Arg-Trp-Apn-Cys)-NH2] , please.
**A:** 1.13

**Q:** What log10 Ki value was documented for this binder, Ac-[2Nal]CH[dF]RW[GABA]C-NH2 (disulfide 2-8) [Ac-2-Nal-c(Cys-His-D-Phe-Arg-Trp-Gaba-Cys)-NH2] ?
**A:** 0.44

New cases:
**Q:** Looking for the measured log10 Ki of Ac-[Chg]DH[dF]RW[GABA]K-NH2 (lactam 2-8) [Ac-Chg-c(Asp-His-D-Phe-Arg-Trp-Gaba-Lys)-NH2] , can you help?
**A:** 2.78

**Q:** Given the entry Ac-[Nle][Pen]H[dF]RW[GABA][Pen]-NH2 (disulfide 2-8) [Ac-Nle-c(Pen-His-D-Phe-Arg-Trp-Gaba-Pen)-NH2] , report its measured log10 Ki.
**A:** 0.43

**Q:** Field request: log10 Ki | item: [Nle]CH[dF]RW[GABA]C-NH2 (disulfide 2-8) [Nle-c(Cys-His-D-Phe-Arg-Trp-Gaba-Cys)-NH2]
**A:** -0.70

**Q:** // query log10 Ki value for entry Ac-[Nle]CHFR[dW][GABA]C-NH2 (disulfide 2-8, Phe 4 is the L form here) [Ac-Nle-c(Cys-His-Phe-Arg-D-Trp-Gaba-Cys)-NH2]
**A:** 1.31

**Q:** Any idea what log10 Ki was measured for Ac-[Nle]DH[dF]RW[GABA]K-NH2 (lactam 2-8) [Ac-Nle-c(Asp-His-D-Phe-Arg-Trp-Gaba-Lys)-NH2] ?
**A:** 1.21
